system name: human glucocorticoid receptor (GR) complex (Homo sapiens)
Construct: made in house; host or cells: insect expression system (baculovirus lysate)
Sequence (P04150 whole entry, one chain of several): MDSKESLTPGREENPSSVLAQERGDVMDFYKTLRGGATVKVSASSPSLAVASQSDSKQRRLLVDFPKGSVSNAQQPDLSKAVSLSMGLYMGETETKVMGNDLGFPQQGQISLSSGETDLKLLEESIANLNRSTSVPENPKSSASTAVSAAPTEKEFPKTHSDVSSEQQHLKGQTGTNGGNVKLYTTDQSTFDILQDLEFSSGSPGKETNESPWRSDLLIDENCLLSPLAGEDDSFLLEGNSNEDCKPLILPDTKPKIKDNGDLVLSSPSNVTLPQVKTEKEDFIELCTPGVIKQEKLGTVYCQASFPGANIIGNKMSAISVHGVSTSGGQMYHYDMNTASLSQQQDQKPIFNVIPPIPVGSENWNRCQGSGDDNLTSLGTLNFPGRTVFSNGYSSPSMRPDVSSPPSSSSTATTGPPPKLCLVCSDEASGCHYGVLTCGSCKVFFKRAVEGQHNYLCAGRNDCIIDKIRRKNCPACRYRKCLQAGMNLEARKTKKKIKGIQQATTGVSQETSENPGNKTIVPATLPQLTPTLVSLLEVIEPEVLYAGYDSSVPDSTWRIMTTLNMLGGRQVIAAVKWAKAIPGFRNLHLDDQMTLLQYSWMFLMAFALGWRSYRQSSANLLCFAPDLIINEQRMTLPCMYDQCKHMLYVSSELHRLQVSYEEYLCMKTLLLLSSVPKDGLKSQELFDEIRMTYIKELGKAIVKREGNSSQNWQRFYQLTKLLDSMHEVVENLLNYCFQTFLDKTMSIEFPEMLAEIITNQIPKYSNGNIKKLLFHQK
test method notes: Glucocorticoid receptor fluorescence polarization competitive binding assay
This listing pairs compounds with measured pIC50.
Field pIC50 (float): negative decimal logarithm of the concentration in molar.

Take a look at these entries with their results.
- compound: "CC(C)(C[C@@](O)(Cc1cc2cc(S(C)(=O)=O)ncc2[nH]1)C(F)(F)F)c1ccc(Cl)cc1S(C)(=O)=O [drawing 13]"
  system name: "human glucocorticoid receptor (GR) complex (Homo sapiens)"
  measured value: 7.44
- compound: "CC(C)(CC(O)(Cc1cc2cc(S(C)(=O)=O)ncc2[nH]1)C(F)(F)F)c1cccc2ccsc12 (stereo not shown)"
  system name: "human glucocorticoid receptor (GR) complex (Homo sapiens)"
  measured value: 8.00
- compound: "CC(C)(C[C@@](O)(Cc1cc2nc(S(C)(=O)=O)ccc2[nH]1)C(F)(F)F)c1ccc(F)cc1C(N)=O"
  system name: "human glucocorticoid receptor (GR) complex (Homo sapiens)"
  measured value: 7.57
- compound: "CC(C)(C[C@@](O)(Cc1cc2cc(S(C)(=O)=O)ncc2[nH]1)C(F)(F)F)c1cccc(Br)c1"
  system name: "human glucocorticoid receptor (GR) complex (Homo sapiens)"
  measured value: 8.05
- compound: "CC(C)(CC(O)(Cc1cc2cc(S(C)(=O)=O)ncc2[nH]1)C(F)(F)F)c1cc(Cl)ccc1S(C)(=O)=O (stereo not shown)"
  system name: "human glucocorticoid receptor (GR) complex (Homo sapiens)"
  measured value: 8.00
- compound: "CC(C)(CC(O)(Cc1cc2nc(S(C)(=O)=O)ccc2[nH]1)C(F)(F)F)c1cc(Cl)ccc1S(C)(=O)=O (stereo not shown)"
  system name: "human glucocorticoid receptor (GR) complex (Homo sapiens)"
  measured value: 8.10

Next:
Q) Field: pIC50 (human glucocorticoid receptor (GR) complex (Homo sapiens)). Entry: CCCS(=O)(=O)c1cc2cc(CC(O)(CC(C)(C)c3ccccc3S(C)(=O)=O)C(F)(F)F)[nH]c2cn1 (stereo not shown)
A) 7.62

----------
Catalogue of compounds with associated IC50
system name: human glucocorticoid receptor (GR) complex (Homo sapiens)
Construct: made in house; host or cells: insect expression system (baculovirus lysate)
test method notes: Glucocorticoid receptor fluorescence polarization competitive binding assay
study conditions: Table 1; competition with TAMRA-labeled dexamethasone; read-out: GR IC50
Reply with just the number (in nM).

- compound: "Cc1ccc(C(C)(C)CC(O)(Cc2cc3cc(S(=O)(=O)C(C)C)ncc3[nH]2)C(F)(F)F)c(C(N)=O)c1 (stereo not drawn)"
  units symbol: "nM"
  IC50: 250

Q) Fill in the recorded IC50 for this compound, with human glucocorticoid receptor (GR) complex (Homo sapiens) as test system: CCS(=O)(=O)c1cc2cc(CC(O)(CC(C)(C)c3ccc(Cl)cc3C(N)=O)C(F)(F)F)[nH]c2cn1 (stereo not drawn)
A) 44

Q) Queued: CC(C)(CC(O)(Cc1cc2cc(S(C)(=O)=O)ncc2[nH]1)C(F)(F)F)c1cc(Br)ccc1O (stereo not drawn)
A) 7

Q) Further, for CC(C)S(=O)(=O)c1cc2cc(CC(O)(CC(C)(C)c3cccc(F)c3S(C)(=O)=O)C(F)(F)F)[nH]c2cn1 (stereo not drawn) ?
A) 210

Q) Same question for CCS(=O)(=O)c1cc2cc(CC(O)(CC(C)(C)c3ccccc3S(N)(=O)=O)C(F)(F)F)[nH]c2cn1 (stereo not drawn) please.
A) 140

Q) Repeat for the following compound: CCS(=O)(=O)c1cc2cc(CC(O)(CC(C)(C)c3cccc4c3S(=O)(=O)C=C4)C(F)(F)F)[nH]c2cn1 (stereo not drawn)
A) 58

Q) Param item: CC(C)S(=O)(=O)c1cc2cc(CC(O)(CC(C)(C)c3ccccc3S(C)(=O)=O)C(F)(F)F)[nH]c2cn1 (stereo not drawn)
A) 97

Q) Subsequent entry: CC(C)(CC(O)(Cc1cc2nc(S(C)(=O)=O)ccc2[nH]1)C(F)(F)F)c1cccc(F)c1S(C)(=O)=O (stereo not drawn)
A) 65

Q) Item: CCS(=O)(=O)c1cc2cc(CC(O)(CC(C)(C)c3ccc(F)cc3S(C)(=O)=O)C(F)(F)F)[nH]c2cn1 (stereo not drawn) [drawing 16]
A) 29

----------
system name: human recombinant CYP3A4 (Homo sapiens)
test method notes: Cytochrome P450 inhibition assay (substrate 7-benzyloxy-4-(trifluoromethyl)coumarin)
Type: in vitro ADME
study conditions: Table 1; read-out: CYP3A4 IC50
Documented log10 of IC50 across a set of compounds
Note: values are log10 of IC50 expressed in µM.

Some solved entries appear below for comparison.
- compound: "CCS(=O)(=O)c1cc2cc(C[C@](O)(CC(C)(C)c3cc(Cl)cc4c3OCC4)C(F)(F)F)[nH]c2cn1"
  log10 of IC50: 0.26
- compound: "CC(C)(C[C@@](O)(Cc1cc2nc(S(C)(=O)=O)ccc2[nH]1)C(F)(F)F)c1ccc(F)cc1C(N)=O"
  log10 of IC50: 0.85

Q) Item CC(C)S(=O)(=O)c1cc2cc(CC(O)(CC(C)(C)c3cc(Cl)ccc3S(C)(=O)=O)C(F)(F)F)[nH]c2cn1 (stereo not drawn) has what recorded log10 of IC50?
A) 0.78

Q) And CCS(=O)(=O)c1cc2cc(CC(O)(CC(C)(C)c3cccc4c3S(=O)(=O)C=C4)C(F)(F)F)[nH]c2cn1 (stereo not drawn) ?
A) 0.61

----------
system name: human glucocorticoid receptor (GR) complex (Homo sapiens)
Construct: made in house; host or cells: insect expression system (baculovirus lysate)
test method notes: Glucocorticoid receptor fluorescence polarization competitive binding assay;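 further: GR complex expressed in an insect system, wells lacking compound give full signal, excess unlabeled dexamethasone defines the blank, IC50 from logistic curve fit of polarization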
study conditions: Table 1; competition with TAMRA-labeled dexamethasone; read-out: GR IC50
pIC50 values by entry
Would you please state pIC50, meaning minus log10 of the concentration in mol/L, as a bare number?

Worked set:
- molecule: "CC(C)(CC(O)(Cc1cc2cc(S(C)(=O)=O)ncc2[nH]1)C(F)(F)F)c1cccc2c1S(=O)(=O)C=C2 (stereo not shown)"
  system name: "human glucocorticoid receptor (GR) complex (Homo sapiens)"
  readout: "pIC50"
  measured value: 7.05
- molecule: "CCS(=O)(=O)c1cc2cc(CC(O)(CC(C)(C)c3ccc(Cl)cc3S(C)(=O)=O)C(F)(F)F)[nH]c2cn1 (stereo not shown) [drawing 15]"
  system name: "human glucocorticoid receptor (GR) complex (Homo sapiens)"
  readout: "pIC50"
  measured value: 7.41
- molecule: "CC(C)(C[C@@](O)(Cc1cc2nc(S(C)(=O)=O)ncc2[nH]1)C(F)(F)F)c1ccc(F)cc1C(N)=O"
  system name: "human glucocorticoid receptor (GR) complex (Homo sapiens)"
  readout: "pIC50"
  measured value: 6.68
- molecule: "CC(C)(C[C@@](O)(Cc1cc2nc(S(C)(=O)=O)ccc2[nH]1)C(F)(F)F)c1ccccc1C(N)=O"
  system name: "human glucocorticoid receptor (GR) complex (Homo sapiens)"
  readout: "pIC50"
  measured value: 7.49
- molecule: "CC(C)S(=O)(=O)c1cc2cc(CC(O)(CC(C)(C)c3ccc(F)cc3S(C)(=O)=O)C(F)(F)F)[nH]c2cn1 (stereo not shown)"
  system name: "human glucocorticoid receptor (GR) complex (Homo sapiens)"
  readout: "pIC50"
  measured value: 7.28
- molecule: "Cc1ccc(C(N)=O)c(C(C)(C)CC(O)(Cc2cc3cc(S(C)(=O)=O)ncc3[nH]2)C(F)(F)F)c1 (stereo not shown)"
  system name: "human glucocorticoid receptor (GR) complex (Homo sapiens)"
  readout: "pIC50"
  measured value: 7.36

Next molecule, pIC50 to be filled in.
Q) Item `CC(C)(C[C@@](O)(Cc1cc2nc(S(C)(=O)=O)ccc2[nH]1)C(F)(F)F)c1cccc(Br)c1` has what recorded pIC50?
A) 7.85

----------
solubility values for the compounds below.
test method notes: High throughput solubility
Type: physicochemical
study conditions: aqueous buffer (pION system solution), pH 7, aqueous buffer, kinetic from dmso stock
Lab book: enter the figure in µg/mL, no units written.

- compound: "CC(C)(C[C@@](O)(Cc1cc2cc(S(C)(=O)=O)ncc2[nH]1)C(F)(F)F)c1ccc(Cl)cc1S(C)(=O)=O [drawing 97]"
  readout: "solubility"
  measured value: 40
- compound: "CCS(=O)(=O)c1cc2cc(CC(O)(CC(C)(C)c3ccc(Cl)cc3S(C)(=O)=O)C(F)(F)F)[nH]c2cn1 (stereo not drawn) [drawing 98]"
  readout: "solubility"
  measured value: 18
- compound: "CC(C)(CC(O)(Cc1cc2cc(S(C)(=O)=O)ncc2[nH]1)C(F)(F)F)c1ccccc1S(C)(=O)=O (stereo not drawn)"
  readout: "solubility"
  measured value: 59

Would you kindly look at the next entry?
Q) Tell me the measured solubility of CCS(=O)(=O)c1cc2cc(CC(O)(CC(C)(C)c3ccc(F)cc3S(C)(=O)=O)C(F)(F)F)[nH]c2cn1 (stereo not drawn) [drawing 99] , please.
A) 52

----------
system name: human recombinant CYP3A4 (Homo sapiens, UniProt P08684)
Sequence (P08684 whole entry): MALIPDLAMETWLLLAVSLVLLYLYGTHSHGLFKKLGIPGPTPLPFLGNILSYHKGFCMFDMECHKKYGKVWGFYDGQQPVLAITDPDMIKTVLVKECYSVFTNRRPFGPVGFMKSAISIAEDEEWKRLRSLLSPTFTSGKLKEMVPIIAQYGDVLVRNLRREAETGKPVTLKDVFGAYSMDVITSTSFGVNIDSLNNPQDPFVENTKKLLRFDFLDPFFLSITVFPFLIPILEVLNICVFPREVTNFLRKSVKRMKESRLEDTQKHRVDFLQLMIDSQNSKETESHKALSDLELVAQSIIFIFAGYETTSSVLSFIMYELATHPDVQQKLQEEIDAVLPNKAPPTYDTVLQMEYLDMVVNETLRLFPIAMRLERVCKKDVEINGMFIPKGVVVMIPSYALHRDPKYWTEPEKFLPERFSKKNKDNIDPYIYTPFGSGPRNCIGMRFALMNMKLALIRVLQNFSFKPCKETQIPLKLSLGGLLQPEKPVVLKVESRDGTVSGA
test method notes: Cytochrome P450 inhibition assay (substrate 7-benzyloxy-4-(trifluoromethyl)coumarin);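 further: compounds preincubated at least 10 min at 37 °C before adding enzyme plus substrate, reaction run 30 min at 37 °C, ketoconazole standard curve on every plate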
Assay type: in vitro ADME
study conditions: Table 1; read-out: CYP3A4 IC50
readout: IC50 (µM)
// return numeric value only (unit: µM, not printed)

- compound: "CC(C)(CC(O)(Cc1cc2cc(S(C)(=O)=O)ncc2[nH]1)C(F)(F)F)c1cccc2c1S(=O)(=O)C=C2 (centres unmarked)"
  measured value: 7.4
- compound: "CC(C)(C[C@@](O)(Cc1cc2cc(S(C)(=O)=O)ncc2[nH]1)C(F)(F)F)c1cc(Cl)cc2c1OCC2 [drawing 3]"
  measured value: 6.5
- compound: "CC(C)(CC(O)(Cc1cc2cc(S(C)(=O)=O)ncc2[nH]1)C(F)(F)F)c1cc(Br)ccc1O (centres unmarked)"
  measured value: 5.6
- compound: "CC(C)(C[C@@](O)(Cc1cc2cc(S(C)(=O)=O)ncc2[nH]1)C(F)(F)F)c1cccc(Br)c1"
  measured value: 20
- compound: "CCCS(=O)(=O)c1cc2cc(CC(O)(CC(C)(C)c3ccccc3S(C)(=O)=O)C(F)(F)F)[nH]c2cn1 (centres unmarked)"
  measured value: 1.6

Q) Please look up its IC50: CC(C)(CC(O)(Cc1cc2nc(S(C)(=O)=O)ccc2[nH]1)C(F)(F)F)c1cccc(F)c1S(C)(=O)=O (centres unmarked)
A) 12

Q) Follow-up item: CCCS(=O)(=O)c1cc2cc(CC(O)(CC(C)(C)c3cc(Cl)ccc3S(C)(=O)=O)C(F)(F)F)[nH]c2cn1 (centres unmarked)
A) 0.9
